Param threshold (1) applies to logP; output Satisfied when value >= threshold, Not satisfied when value < threshold.

Q. Hello, I need to know if NNC(=O)c1ccc2c(c1)OCO2 has measured logP not below 1. Thanks!
A. Satisfied

Q. Hello, I need to know if CCCCC1C(=O)NC(=O)N(C)C1=O (stereo not drawn) has measured logP not below 1. Thanks!
A. Satisfied

Q. Hello, I need to know if CCOC(=O)C1=CNC2CCCCN2C1=O (stereo not drawn) has measured logP not below 1. Thanks!
A. Not satisfied

====

readoutName: logP
Give bare numbers.

Answered cases to consult:
1) CCOCCOCCOP(=S)(N1CC1)N1CC1 | 0.38
2) CCCCC(NC(Cc1ccccc1)C(=O)N1CCC(OCOC)CC1)C(=O)NC(CC1CCCCC1)C(O)CC(C(=O)NCCCN1CCOCC1)C(C)C (centres undefined) | 4.5
3) CC(C)NC(=N)NC(=N)Nc1ccc(Cl)cc1 | 2.53

Could you now consider this next compound?
Q. Answer with reported logP of CC(=O)O[C@H]1[C@@H](OC(C)=O)C[C@H](O[C@@H]2C(C)O[C@@H](O[C@H]3[C@@H](OC(C)=O)C[C@H](O[C@H]4CC[C@@]5(C)[C@H](CC[C@@H]6[C@@H]5CC[C@]5(C)[C@@H](C7=CC(=O)OC7)[C@@H](OC(C)=O)C[C@]65O)C4)O[C@@H]3C)C[C@@H]2OC(C)=O)O[C@@H]1C (some centres undefined)
A. 3.46
